# System: HOP-62 NSCLC
# PROTOCOL DETAILS: NCI-60 one-dose screen, 48 h
# CONDITION NOTES: 10 µM unless noted
# Protocol: Growth inhibition of the HOP-62 human Non-Small Cell Lung tumor cell line is measured as a screen for anti-cancer activity. Cells are grown in 96 well plates and exposed to the test compound for 48 hours. Compounds are tested at a single concentration, which is 10^-5 M for most compounds. The reported endpoint is percent growth (GI% or GIPRCNT), where numbers from 0 - 100% represent growth inhibition, and numbers from -100% - 0 represent cell death. […]
Compounds without any hit were thinned out: in the full panel of roughly 83,000, 20% have a hit. The source made the active and inactive calls. Rule for the calls: active = growth percent below 10; inactive = the rest.
Lab note: assign the record to one of Yes = active, No = inactive

Tell me the assay call for `Cc1ccc(C(=O)NCCCOc2ccc(N3C(N)=NC(N)=NC3(C)C)cc2Cl)cc1S(=O)(=O)F` please. No

* * *

# Tested on: HOP-92 NSCLC
# PROTOCOL DETAILS: NCI-60 one-dose screen, 48 h
# CONDITION NOTES: 10 µM unless noted
Compounds without any hit were thinned out: in the full panel of roughly 83,000, 20% have a hit. The source made the active and inactive calls. How the source made its calls: active means growth percent below 10; inactive means the rest.
API: response.call in t (active), f (inactive)

Use the examples below as a reference point.
| COMPOUND | CLASS ASSIGNMENT |
| --- | --- |
| CCCC[C@H](NC(=O)[C@H]1CCCCN1C)C(=O)N(C)[C@H](C[C@@H](OC(C)=O)c1nc(C(=O)N[C@@H](Cc2ccccc2)C[C@H](C)C(=O)OCC)cs1)C(C)C | f |
| ClCCN(CCCl)Cc1ccc(Nc2ccnc3cc(Cl)ccc23)cc1 | t |
| COC(=O)[C@H](Cc1ccccc1)NC(=O)c1csc([C@@H](C[C@H](C(C)C)N(C)C(=O)[C@@H](NC(=O)[C@H]2CCCCN2C)C2CC2)OC(C)=O)n1 | t |
| CCCCOc1ccc(C(N)Cc2ccccc2)cc1 (stereo not given) | f |
| ClCCN(CCCl)c1ccc(/C=N/Nc2ncnc3nc[nH]c23)cc1 | f |
| Cc1ccc2c(C(C[N+](=O)[O-])c3cccs3)c(-c3ccccc3)[nH]c2c1 (stereo not given) | f |

Here is another compound to look at.
Could you please tell me the result logged for CC12CCC3C(CCC4=CC(=O)CCC43CF)C1CCC2=O (stereo not given) in this assay? f

* * *

growth for assorted molecules
# Test system: MOLT-4 leukemia
# PROTOCOL DETAILS: NCI-60 one-dose screen, 48 h (100 = growth as untreated, 0 = no growth, -100 = all killed)
# CONDITION NOTES: 10 µM unless noted
This is part of a sample that, as a whole, favours compounds with a hit. Of some 83,000 tested, about 20% had one in any assay.
Dear colleague, please return just the value in %, with no unit written.

Solved entries (count: 5):
| MOLECULE | growth / % |
| --- | --- |
| CC(=O)c1ccc(C(=O)NCC2CCC3(CC2)OOC2(CCCCC2)OO3)cc1 | 63.4 |
| C[CH2][Sn]([Cl])([Cl])[CH2]C.Oc1ccccc1C=NCCN=Cc1ccccc1O | 86.1 |
| COc1ccc2c(c1)c(-c1nc(-c3cn(C)c4ncccc34)cs1)cn2CCCCN1CCCCC1 | -65 |
| O=[N+]([O-])c1ccc(OP(=O)(CCl)N(CCCl)CCCl)cc1 (stereo unspecified) | 89.7 |
| NC(N)=N/N=C\c1c[nH]c2ccc(Br)cc12 | 79.2 |

Now for the molecule whose growth we want.
The molecule `Clc1cccc(N2COOC3(OOC2)C2CC4CC(C2)CC3C4)c1` , tested on MOLT-4 leukemia, showed growth of 77.8

* * *

# Tested on: MDA-MB-435 melanoma
# PROTOCOL DETAILS: NCI-60 one-dose screen, 48 h
# CONDITION NOTES: 10 µM unless noted
The panel holds about 83,000 compounds, 20% with a hit somewhere; the sample as a whole holds those more often. Calls of active or inactive are those of the source. The calls were made as follows: active = growth percent below 10; inactive = the rest.
Allowed answers: active, inactive

| COMPOUND | CLASS ASSIGNMENT |
| --- | --- |
| CC[C@H](C)[C@H](NC(=O)c1ccccn1)C(=O)N(C)[C@H](C[C@@H](OC(C)=O)c1nc(C(=O)N[C@@H](Cc2ccccc2)C[C@H](C)C(=O)OC)cs1)C(C)C | active |
| O=[N+]([O-])CC(O)C(Cl)(Cl)Cl (stereo unspecified) | inactive |
| Cc1cc(-c2nc3cc(F)ccc3[se]2)cc(F)c1N | inactive |
| O=C([O][Hg][CH2]C1OCCOC1[CH2][Hg][O]C(=O)c1ccccc1)c1ccccc1 (stereo unspecified) | inactive |
| Clc1cccc(N2COOC3(OOC2)C2CC4CC(C2)CC3C4)c1 | inactive |

Check the results log: what was the call for `CCn1c2ccccc2c2cc(C(=O)c3ccc(C)c4ccccc34)ccc21` ? active

# fetch the recorded call for CN(C)CC(C(=O)Cc1ccccc1)c1ccccc1 (stereo unspecified) here inactive

Lab log entry: `CN1C(=O)N[C@H]2[C@@H]3NC(=O)c4ccc(Br)n4[C@@H]3C[C@]21O` — outcome as called in the assay? active

What did this assay record as the result for `Clc1ccc2nnnn2n1` ? active

What classification did `C[N+](C)(C)Cc1cc(Cl)ccc1O` end up with in this test? inactive

* * *

Listing: growth of selected compounds
# Test system: SK-OV-3 ovarian
# PROTOCOL DETAILS: NCI-60 one-dose screen, 48 h (100 = growth as untreated, 0 = no growth, -100 = all killed)
# CONDITION NOTES: 10 µM unless noted
This is part of a sample that, as a whole, favours compounds with a hit. Of some 83,000 tested, about 20% had one in any assay.
# output: bare number, implied unit %

| COMPOUND | ASSAY METRIC | READOUT UNITS | RESULT |
| --- | --- | --- | --- |
| Cn1cc(-c2csc(-c3cn(CCN4CCOCC4)c4ccc(F)cc34)n2)c2cccnc21 | growth | % | 78.7 |
| CC[CH2][Sn]([Cl])([Cl])[CH2]CC | growth | % | 107 |
| COC(=O)CCC1=C(C)c2cc3[n-]c(cc4nc(cc5[n-]c(cc1n2)c(CCC(=O)OC)c5C)C=C4C)cc3C.[Cd+2] | growth | % | 83.5 |
| O=C(Nc1ccc(Cl)cc1)Nc1nccs1 | growth | % | 33.1 |
| CCCCCCCCCCCCCCCCCC1OC[C@@H](COC(=O)O[C@@H](C(=O)O[C@H]2C[C@@]3(O)[C@@H](OC(=O)c4ccccc4)[C@@H]4[C@]5(OC(C)=O)CO[C@@H]5C[C@H](O)[C@@]4(C)C(=O)[C@H](OC(C)=O)C(=C2C)C3(C)C)[C@@H](NC(=O)c2ccccc2)c2ccccc2)O1 (some centres undefined) | growth | % | 57.9 |

Entry CC12CCC3C(CCC4Cc5[nH]c6ccccc6c5CC43C)C1CCC2O (centres undefined) , growth reported as 29.5

Entry under test: `CCC1(C(C)C)C(=O)NC(=S)NC1=O` . Its growth was 118

* * *

# System: MALME-3M melanoma
# PROTOCOL DETAILS: NCI-60 one-dose screen, 48 h
# CONDITION NOTES: 10 µM unless noted
About 83,000 compounds went through this panel and 20% of them were active in at least one assay; those are over-represented in the sample as a whole. The source made the active and inactive calls. How the source made its calls: active means growth percent below 10; inactive means the rest.
Give your call using only these classes: active, inactive

Given `C=CCCCN=C=S` , state the outcome it received in this test. inactive

* * *

# Test system: HCT-116 colon
# PROTOCOL DETAILS: NCI-60 one-dose screen, 48 h
# CONDITION NOTES: 10 µM unless noted
This is part of a sample that, as a whole, favours compounds with a hit. Of some 83,000 tested, about 20% had one in any assay. Calls of active or inactive are those of the source. The calls were made as follows: active = growth percent below 10; inactive = the rest.
Would you mind answering with one of these outcomes? active, inactive

Below, 5 compounds whose answers are already recorded.
| COMPOUND | CLASS ASSIGNMENT |
| --- | --- |
| CC[C@H](C)[C@H](NC(=O)c1cccn1C)C(=O)N(C)[C@H](C[C@@H](OC(C)=O)c1nc(C(=O)N[C@@H](Cc2ccccc2)C[C@H](C)C(=O)OC)cs1)C(C)C | active |
| Cc1cccc(N2CCN(C(C)C#N)CC2)c1 (stereo not drawn) | inactive |
| CCCCCCCCC(CO)NCCc1ccccc1 (stereo not drawn) | inactive |
| C/C(CC(C)(C)N1CC1)=N\NC(=O)Nc1cccc2ccccc12 | inactive |
| COc1cc([C@@H]2c3cc4c(cc3[C@H](OC(C)=O)[C@H]3COC(=O)[C@H]23)OCO4)cc(OC)c1OC | active |

Query: recorded result category for `COC(=O)[C@@H](C)C[C@H](Cc1ccccc1)NC(=O)c1csc([C@@H](C[C@H](C(C)C)N(C)C(=O)[C@@H](NC(=O)CN(C)C)C2CC2)OC(C)=O)n1` in this test active

State the result this test recorded for `Cc1c(O)c(CN(CCCl)CCCl)cc(CN(CCCl)CCCl)c1O` . inactive

What outcome does the record of this test show for `C[n+]1c(/C=C/c2ccc(N(CCCl)CCCl)cc2)sc2ccccc21` ? inactive

Fill in: this test's call for O=C1C2CCC1C(N1CCCC1)CC2 (stereo not drawn) is ___ inactive

Look up the recorded call for `COC(=O)[C@H](C[C@H](Cc1ccccc1)NC(=O)c1csc([C@@H](C[C@H](C(C)C)N(C)C(=O)[C@@H](NC(=O)[C@H]2CCCCN2C)C(C)C)OC(C)=O)n1)NC(=O)OCc1ccccc1` in this test. active

Entry source: PubChem BioAssay (NCI)
